Data origin: patent US12559505B2

- TEST SYSTEM: IDH R132C (Homo sapiens, UniProt O75874, R132C)
- Construct: expressed in transfected cells; host or cells: U87 cells
- Sequence (O75874 whole entry R132C): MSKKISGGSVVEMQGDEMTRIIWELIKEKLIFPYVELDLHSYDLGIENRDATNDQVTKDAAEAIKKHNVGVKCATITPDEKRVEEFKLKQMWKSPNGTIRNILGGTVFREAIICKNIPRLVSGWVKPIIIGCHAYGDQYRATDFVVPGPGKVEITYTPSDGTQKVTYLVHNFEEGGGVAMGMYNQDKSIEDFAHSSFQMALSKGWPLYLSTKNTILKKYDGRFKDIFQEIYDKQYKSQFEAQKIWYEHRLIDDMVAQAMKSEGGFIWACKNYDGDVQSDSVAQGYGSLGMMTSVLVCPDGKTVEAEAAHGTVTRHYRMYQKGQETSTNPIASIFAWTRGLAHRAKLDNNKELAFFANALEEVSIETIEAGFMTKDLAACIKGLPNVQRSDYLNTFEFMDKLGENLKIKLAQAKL
- ASSAY TEXT: Detection of 2-HG in supernatant of U87-IDH R132C cells
- Type: cell-based
- MEASUREMENT PARAMETERS: 100 nM compound, 72 h, LC-MS-MS, vs control; read-out: Inhibition rate of compounds on 2-HG in the supernatant of U87-IDH R132C cells, 100 nM

{"columns": ["COMPOUND", "inhibition at 0.1 µM"],
 "data": [
  ["C=CC(=O)N1CCN(C(CC)c2ccc([C@H](C)Nc3ncc4cnc(=O)n(CC)c4n3)cc2)CC1 (stereo partly shown) [Compound 115]", "> 90%"],
  ["C=CC(=O)N(C)C1CCN(C(CC2CC2)c2ccc(C3(Nc4ncc5c(n4)N(CC)C(=O)OC5)CC3)cc2)CC1 (stereo not shown) [Compound 29]", "> 90%"],
  ["C=CC(=O)N1CC2(C1)CN(C(CC13CC(C1)C3)c1ccc([C@H](C)Nc3ncc4c(n3)N(CC)C(=O)OC4)cc1)C2 (stereo partly shown) [Compound 66]", "> 90%"],
  ["C=CC(=O)N1CCN(C(CC2CC2)c2ccc(C3(Nc4ncc5c(n4)N(CC)C(=O)OC5)CC3)cc2)CC1 (stereo not shown) [Compound 152]", "> 90%"]
]}

---

- TEST SYSTEM: IDH R132C (Homo sapiens, UniProt O75874, R132C)
- Construct: expressed in transfected cells; host or cells: U87 cells
- ASSAY TEXT: Detection of 2-HG in supernatant of U87-IDH R132C cells
- Format: cell-based
- MEASUREMENT PARAMETERS: 10 nM compound, 72 h, LC-MS-MS, vs control; read-out: Inhibition rate of compounds on 2-HG in the supernatant of U87-IDH R132C cells, 10 nM

{"columns": ["MOLECULE", "TEST SYSTEM", "inhibition at 0.01 µM"],
 "data": [
  ["C=CC(=O)N1CC2(C1)CN(C(CC1(C)CC1)c1ccc([C@H](C)Nc3ncc4c(n3)N(CC)C(=O)NC4)cc1)C2 (stereo partly shown)", "IDH R132C (Homo sapiens, UniProt O75874, R132C)", "> 90%"],
  ["C=CC(=O)NC1CCN(C(CC2CC2)c2ccc([C@H](C)Nc3ncc4c(n3)N(C(C)C)C(=O)OC4)cc2)CC1 (stereo partly shown)", "IDH R132C (Homo sapiens, UniProt O75874, R132C)", "60 to 90%"],
  ["C=CC(=O)N1CCN(C(CC(C)C)c2ccc([C@H](C)Nc3ncc4cnc(=O)n(C(C)C)c4n3)cc2)CC1 (stereo partly shown)", "IDH R132C (Homo sapiens, UniProt O75874, R132C)", "> 90%"],
  ["C=CC(=O)N1CCN(C(CC2CC2)c2ccc(C3(Nc4ncc5c(n4)N(CC)C(=O)OC5)CC3)cc2)CC1 (stereo not shown)", "IDH R132C (Homo sapiens, UniProt O75874, R132C)", "> 90%"]
]}

---

- TEST SYSTEM: IDH R132C (Homo sapiens, UniProt O75874, R132C)
- Construct: expressed in transfected cells; host or cells: U87 cells
- ASSAY TEXT: Detection of 2-HG in supernatant of U87-IDH R132C cells
- Format: cell-based
- MEASUREMENT PARAMETERS: 1 nM compound, 72 h, LC-MS-MS, vs control; read-out: Inhibition rate of compounds on 2-HG in the supernatant of U87-IDH R132C cells, 1 nM
Entries annotated with measured inhibition at 0.001 µM

{"columns": ["COMPOUND", "inhibition at 0.001 µM"],
 "data": [
  ["C=CC(=O)N1CCN([C@H](CC2CC2)c2ccc([C@H](C)Nc3ncc4cnc(=O)n(C(C)C)c4n3)cc2)CC1", "30 to 60%"],
  ["N#Cc1ccnc(N2C(=O)CC[C@H]2C(=O)N(c2cncc(F)c2)[C@H](C(=O)NC2CC(F)(F)C2)c2ccccc2Cl)c1 [Ivosidenib, ivosidenib, reference compound]", "< 30%"],
  ["C=CC(=O)N1CCN(C(CC2CCC2)c2ccc([C@H](C)Nc3ncc4cnc(=O)n(C(C)C)c4n3)cc2)CC1 (stereo partly drawn)", "30 to 60%"],
  ["C=CC(=O)N1CCN([C@H](CC23CC(C2)C3)c2ccc([C@H](C)Nc3ncc4c(n3)N(CC)C(=O)NC4)cc2)CC1", "60 to 90%"],
  ["C=CC(=O)NC1CCN(C(CC2CC2)c2ccc([C@H](C)Nc3ncc4c(n3)N(CC)C(=O)OC4)cc2)CC1 (stereo partly drawn)", "30 to 60%"],
  ["C=CC(=O)N1CC2(C1)CN(C(CC1CC1)c1ccc(C3(Nc4ncc5c(n4)N(CC)C(=O)OC5)CC3)cc1)C2 (stereo not drawn)", "30 to 60%"],
  ["C=CC(=O)N(C)C1CCN(C(CC2CC2)c2ccc(C3(Nc4ncc5c(n4)N(CC)C(=O)OC5)CC3)cc2)CC1 (stereo not drawn)", "< 30%"],
  ["C=CC(=O)N1CCN(C(CC(C)C)c2ccc([C@H](C)Nc3ncc4c(n3)N(C(C)C)C(=O)NC4)cc2)CC1 (stereo partly drawn)", "30 to 60%"],
  ["C=CC(=O)N1CCN(C(CC2CC2)c2ccc(C3(Nc4ncc5cnc(=O)n(C(C)C)c5n4)CC3)cc2)CC1 (stereo not drawn)", "30 to 60%"],
  ["C=CC(=O)N1CC2(C1)CN(C(CC)c1ccc([C@H](C)Nc3ncc4c(n3)N(CC)C(=O)OC4)cc1)C2 (stereo partly drawn)", "60 to 90%"],
  ["C=CC(=O)N1CCN(C(CC2CC2)c2ccc([C@H](C)Nc3ncc4c(n3)N(C(C)C)C(=O)OC4)cc2)CC1 (stereo partly drawn)", "60 to 90%"],
  ["C=CC(=O)N1CCN(C(CC23CC(C2)C3)c2ccc([C@H](C)Nc3ncc4c(n3)N(CC)C(=O)NC4)cc2)CC1 (stereo partly drawn)", "60 to 90%"],
  ["C=CC(=O)N(C)C1CCN(C(CC2CC2)c2ccc([C@H](C)Nc3ncc4c(n3)N(C(C)C)C(=O)OC4)cc2)CC1 (stereo partly drawn)", "30 to 60%"],
  ["C=CC(=O)N1CCN([C@H](CC2CC2)c2ccc([C@H](C)Nc3ncc4c(n3)N(C(C)C)C(=O)OC4)cc2)CC1", "30 to 60%"],
  ["C=CC(=O)N1CCN([C@H](CC)c2ccc([C@H](C)Nc3ncc4cnc(=O)n(CC)c4n3)cc2)CC1", "30 to 60%"],
  ["C=CC(=O)N1CCN(C(CC2CCC2)c2ccc(C3(Nc4ncc5c(n4)N(CC)C(=O)OC5)CC3)cc2)CC1 (stereo not drawn)", "30 to 60%"],
  ["C=CC(=O)N(C)C1CN(C(CC2CC2)c2ccc([C@H](C)Nc3ncc4c(n3)N(CC)C(=O)OC4)cc2)C1 (stereo partly drawn)", "30 to 60%"],
  ["C=CC(=O)N1CCN(C(CC2CC2)c2ccc([C@H](C)Nc3ncc4c(n3)N(CC)C(=O)NC4)cc2)CC1 (stereo partly drawn)", "30 to 60%"],
  ["C=CC(=O)N1CCN(C(CC2CC2)c2ccc([C@H](C)Nc3ncc4cnc(=O)n(C(C)C)c4n3)cc2)CC1 (stereo partly drawn)", "60 to 90%"],
  ["C=CC(=O)N1CC2(C1)CN(C(CC1CC1)c1ccc([C@H](C)Nc3ncc4c(n3)N(CC(C)C)C(=O)OC4)cc1)C2 (stereo partly drawn)", "60 to 90%"],
  ["C=CC(=O)N1CCN(C(CC2(C)CC2)c2ccc([C@H](C)Nc3ncc4cnc(=O)n(CC)c4n3)cc2)CC1 (stereo partly drawn)", "60 to 90%"],
  ["C=CC(=O)N1CCN(C(CC(C)C)c2ccc([C@H](C)Nc3ncc4cnc(=O)n(C(C)C)c4n3)cc2)CC1 (stereo partly drawn)", "60 to 90%"],
  ["C=CC(=O)N1CCN(C(CC2(C)CC2)c2ccc([C@H](C)Nc3ncc4c(n3)N(CC)C(=O)OC4)cc2)CC1 (stereo partly drawn)", "60 to 90%"],
  ["C=CC(=O)NC1CN(C(CC2CC2)c2ccc(C3(Nc4ncc5c(n4)N(CC)C(=O)OC5)CC3)cc2)C1 (stereo not drawn)", "< 30%"],
  ["C=CC(=O)NC1CCN(C(CC2CC2)c2ccc([C@H](C)Nc3ncc4c(n3)N(C(C)C)C(=O)OC4)cc2)CC1 (stereo partly drawn)", "< 30%"],
  ["C=CC(=O)N1CCN(C(CC(C)(C)C)c2ccc([C@H](C)Nc3ncc4c(n3)N(C(C)C)C(=O)OC4)cc2)CC1 (stereo partly drawn)", "30 to 60%"],
  ["C=CC(=O)N1CCN(C(CC)c2ccc([C@H](C)Nc3ncc4c(n3)N(C(C)C)C(=O)NC4)cc2)CC1 (stereo partly drawn)", "30 to 60%"]
]}
